# PROTOCOL_TEXT: NCI Yeast Anticancer Drug Screen. Data for the wt1 strain (AID 149);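 further: 0% = growth of vehicle-treated wt1 cultures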
# CONDITION_DETAILS: S. cerevisiae wt1 strain (SPY 50644) growth inhibition; at 3.7 µM; stronger effect = higher value
The panel holds about 79,000 compounds, 15% with a hit somewhere; the sample as a whole holds those more often.
ENDPOINT_LABEL: growth inhibition (%)
Give bare numbers, in %.

O=C(NNc1ccccc1)c1ccc(Cl)c(Cl)c1 | -1
CCCCCCCCCCCC1=NCCO1 | -1
CCCCNC1CCC2(SCCS2)c2[nH]c3ccccc3c21 (configuration not stated) | 1
O=[N+]([O-])c1cc(S(=O)(=O)Nc2ccccc2)ccc1Nc1ccccc1 | -19
Cc1ccc([N+]2=NC(c3ccccc3)=NN(c3ccccc3)C2)cc1 | 5
CCCCCCCCCCCC(O)S(=O)(=O)O (configuration not stated) | -1
Cc1c(C(C)C)cc(OCCO)cc1C(C)C | -3
O=C(NO)Nc1cc(Cl)cc(Cl)c1 | -3
O=C1NC(SSC2=NNC3(C(=O)N2)c2ccccc2-c2ccccc23)=NNC12c1ccccc1-c1ccccc12 | 0
NC(=O)C(=O)NNc1ccccc1 | 13

Hi! Can you tell me growth inhibition for each of these compounds?
1. CN(C)/C=C/c1nnc([N+](=O)[O-])s1
2. COc1ccc2c(c1)n([O-])c1ccccc1[n+]2=O
3. CCCCCCCCCCCCCCCCOP(=O)(O)OCC(N)C(=O)O (configuration not stated)
4. COc1cc2cc3c4cc(OC)c(OC)cc4cc[n+]3c(C)c2cc1OC
5. Nc1nc2ccc(NCc3ccc(C(=O)NC(CCC(=O)O)C(=O)O)cc3)cc2c(=O)[nH]1 (configuration not stated)

1. -8
2. 2
3. -22
4. -31
5. -17

Hi! Can you tell me growth inhibition for each of these compounds?
1. CCOC(=O)/C(=C\c1ccc(C#N)cc1)C(C)=O
2. O=P(NC1CCCCC1)(OCc1ccccc1)OCc1ccccc1
3. Brc1ccccc1-c1ncc(-c2ccccc2)o1
4. CCOC(=O)C(C(=O)OCC)=P(c1ccccc1)(c1ccccc1)c1ccccc1
5. O=C(NCCCl)Sc1ccc(Cl)cc1
6. COc1cccc2c1C(=O)c1c(O)c3c(c(O)c1C2=O)CC(O)(C(O)CO)CC3OC1CC(N2CCOCC2)C(O)C(C)O1 (configuration not stated)
7. OCc1ccccc1Cc1ccccc1
8. CCCC(=O)Oc1c(C)cc([N+](=O)[O-])cc1[N+](=O)[O-]

6
3
-26
1
-3
96
-1
0

Hi! Can you tell me growth inhibition for each of these compounds?
1. NC1CCCCC1N.Nc1c(N=Nc2ccc(-c3ccc(N=Nc4cc(S(=O)(=O)[O-])c5ccccc5c4N)cc3)cc2)cc(S(=O)(=O)[O-])c2ccccc12.[OH3+].[OH3+].[Pt+4]
2. O=C(/C=C\c1cccc(C(F)(F)F)c1)c1ccccc1
3. CN(C)CCNc1ccc2ncnc3c2c1C(=O)c1ccccc1-3
4. c1ccc2c(c1)sc1c3cnccc3ccc21

[-43, 2, 8, 14]

====

# PROTOCOL_TEXT: NCI Yeast Anticancer Drug Screen. Data for the mec2-1 strain (AID 157)
# CONDITION_DETAILS: S. cerevisiae mec2-1 strain, at 1.2 µM, stronger effect = higher value
Compounds without any hit were thinned out: in the full panel of roughly 79,000, 15% have a hit.
ENDPOINT_LABEL: growth inhibition (%)
Answers are plain numbers, in %.

Some solved cases for reference:
Cc1ccccc1N=C(NO)c1ccccc1 | 1
Cc1cccc(/C=N/NC(=S)N2CCCC2)n1 | -24
O=C(O)Cc1cc(F)ccc1C(=O)O | -1

Hi! Can you tell me growth inhibition for each of these molecules?
1. O=C1CC(=O)c2ccccc21
2. CC(C)(C)c1ccc(NS(=O)(=O)c2ccc(N)cc2)cc1
3. Cc1ccc(Sc2ccccc2N)cc1
4. COc1ccc(/C=C2\NC(=S)N(/C=C3\C(=O)Oc4ccccc4C3=O)C2=O)cc1
5. COc1cc([C@@H]2c3cc4c(cc3[C@@H](Nc3ccc(NC(=O)c5cc([N+](=O)[O-])cn5C)cc3)[C@H]3COC(=O)[C@H]23)OCO4)cc(OC)c1O

1: 1; 2: 4; 3: -30; 4: 0; 5: -16

Hi! Can you tell me growth inhibition for each of these molecules?
1. CCCCCOC(=S)SC(=O)OCC
2. COc1ccc([N+](=O)[O-])c2c(NCCCN(C)C)c3ccccc3nc12
3. O=c1ccc(=O)n(-c2ccccc2)[nH]1

1. -3
2. 4
3. -23
